Assay: Solubility testing of peptides at different pH
Format: physicochemical
Conditions: 50 mM phosphate buffer pH 7.4; target concentration 1 mg/ml; 2 hours agitation; read-out: Solubility Buffer pH 7.4
Experimental: Prior to the solubility measurement of a synthesized peptide batch, its purity was determined through UPLC/MS (methods B-G). For solubility testing the target concentration was 1 mg pure compound/ml. […] The solubility was determined by the comparison of the UV peak area of 2 μL-injections of a buffered sample diluted 1:5 with a standard curve of a dimethyl sulfoxide reference sample of the diluted in dimethyl sulfoxide with known concentration. […]
Positions of bridges follow the written chain, without caps; N, C: chain ends. Non-standard residues stand in square brackets, D forms with d. Residues, ends and D or L forms follow the SMILES beside them. 2Nal = N[C@@H](Cc1ccc2ccccc2c1)C(=O)O; Aib = CC(C)(N)C(=O)O; Ava = NCCCCC(=O)O
measurement_kind: solubility at 2 h (µg/mL)
Answers are plain numbers, in µg/mL.

Please look up its solubility at 2 h: COc1ccc(C[C@@H]2NC(=O)[C@@H]3CSSC[C@H](NC(=O)CCCCNC(=O)CC[C@@H](C(=O)N[C@@H](CC(N)=O)C(=O)NCC(N)=O)NC(=O)C(C)(C)NC(=O)[C@H](Cc4ccc5ccccc5c4)NC2=O)C(=O)N[C@@H](CC(N)=O)C(=O)N[C@@H]([C@@H](C)O)C(=O)N[C@@H](Cc2c[nH]c4ccccc24)C(=O)N[C@@H](CCC(N)=O)C(=O)N3)cc1 [compound 4] ([Ava]CNTWQCY(Me)[2Nal][Aib]ENG-NH2; disulfide 2-7; lactam N-11)
20

The reported measurements were obtained from patent US20260258084A1.
